# measurementTarget: AHR (UniProt P35869)
# Construct: IC50
# testMethodNotes: DRE-Luciferase Reporter Assay (Alternate Method) (Example 1B)
# Type: cell-based, murine or human
# experimentalSetup: cell line and AHR activating ligand not specified
pIC50: −log10 of the molar value.
Measured pIC50 values are reported for all entries that follow.

Cc1[nH]c2ccccc2c1CCNc1nc(-c2cncc(F)c2)nc2c1ncn2C(C)C = > 6.30

Q) Value lookup for pIC50; key = Cc1[nH]c2c(F)cccc2c1CCNc1nc(-c2cncc(F)c2)nc2c(C)cnn12
A) > 6.30

Q) Value lookup for pIC50; key = Fc1cncc(-c2cc(NCCc3c[nH]c4ccccc34)n3ncc(C4CC4)c3n2)c1
A) > 6.30

Q) Value lookup for pIC50; key = Cc1cnn2c(N[C@@H]3CCc4[nH]c5c(F)cc(F)cc5c4C3)cc(-c3cncc(F)c3)nc12 [I-243a]
A) < 5.82

Q) Value lookup for pIC50; key = Fc1cncc(-c2nc(NCCc3c[nH]c4ccccc34)cc(N3CCCC3)n2)c1
A) > 6.30

Q) Value lookup for pIC50; key = CC(C)c1cnc2c(NCCc3c[nH]c4ccccc34)nc(-c3cncc(F)c3)cn12
A) > 6.30

Q) Value lookup for pIC50; key = CC(C)c1cnn2c(NCCc3c[nH]c4ccccc34)cc(-c3ccc4c(c3)OCO4)nc12
A) 5.82 to 6.00

Q) Value lookup for pIC50; key = CC(C)c1cnn2c(N[C@H]3CCc4[nH]c(-c5ccccc5)cc4C3)nc(-c3cncc(F)c3)nc12 [I-249a]
A) > 6.30

Q) Value lookup for pIC50; key = O=C(O)c1cnn2c(NCCc3c[nH]c4c(O)cccc34)cc(-c3cncc(F)c3)nc12
A) < 5.82

---

# measurementTarget: AHR (UniProt P35869)
# Construct: IC50
# Sequence (P35869 1-848): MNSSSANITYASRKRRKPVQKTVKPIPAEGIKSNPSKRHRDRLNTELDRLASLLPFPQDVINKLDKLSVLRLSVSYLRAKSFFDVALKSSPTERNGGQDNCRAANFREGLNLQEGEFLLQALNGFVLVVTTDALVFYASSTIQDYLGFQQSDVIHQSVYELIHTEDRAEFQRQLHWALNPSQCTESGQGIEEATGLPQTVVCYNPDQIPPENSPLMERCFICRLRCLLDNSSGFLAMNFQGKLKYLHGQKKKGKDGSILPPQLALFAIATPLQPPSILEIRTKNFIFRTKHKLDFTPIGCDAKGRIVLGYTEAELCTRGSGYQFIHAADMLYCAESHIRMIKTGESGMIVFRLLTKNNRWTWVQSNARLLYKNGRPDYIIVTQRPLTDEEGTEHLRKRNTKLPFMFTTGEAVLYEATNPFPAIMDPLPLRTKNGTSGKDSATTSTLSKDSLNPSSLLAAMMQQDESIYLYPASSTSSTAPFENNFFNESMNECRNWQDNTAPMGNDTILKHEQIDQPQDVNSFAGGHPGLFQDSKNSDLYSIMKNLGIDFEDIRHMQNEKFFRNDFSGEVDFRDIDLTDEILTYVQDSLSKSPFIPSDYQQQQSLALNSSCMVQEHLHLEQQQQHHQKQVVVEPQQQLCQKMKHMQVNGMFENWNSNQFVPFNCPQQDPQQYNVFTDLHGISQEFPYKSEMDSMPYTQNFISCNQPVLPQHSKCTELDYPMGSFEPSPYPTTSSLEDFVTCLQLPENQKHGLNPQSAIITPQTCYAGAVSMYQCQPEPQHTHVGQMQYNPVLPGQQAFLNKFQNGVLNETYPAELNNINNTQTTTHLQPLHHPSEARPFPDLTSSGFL
# testMethodNotes: DRE-Luciferase Reporter Assay (Alternate Method) (Example 1B)
# Format: cell-based, murine or human
# experimentalSetup: cell line and AHR activating ligand not specified
quantity: IC50

CC(=O)c1cnn2c(NCCc3c[nH]c4ccccc34)cc(-c3cncc(F)c3)nc12 = < 500 nM
NC(=O)c1cnn2c(N[C@@H]3CCc4[nH]c5ccccc5c4C3)nc(-c3cncc(F)c3)nc12 = < 500 nM
CC(C)c1cnn2c(NCCc3c[nH]c4ccccc34)ccnc12 = > 1500 nM

Q) IC50 of Cc1cnn2c(NCCc3c[nH]c4ccccc34)nc(-c3cncc(F)c3)nc12 on AHR (UniProt P35869)?
A) < 500 nM

Q) IC50 of Cc1cnn2c(NCCc3ccc(NS(C)(=O)=O)cc3)cc(-c3cncc(F)c3)nc12 on AHR (UniProt P35869)?
A) > 1500 nM

Q) IC50 of CC(C)c1cnn2c(N[C@@H]3CCc4[nH]c5ccccc5c4C3)nc(C3CCOCC3)nc12 on AHR (UniProt P35869)?
A) > 1500 nM

Q) IC50 of CC(C)n1cnc2c(NCCc3cn4ccccc4n3)nc(-c3cncc(F)c3)nc21 on AHR (UniProt P35869)?
A) < 500 nM

Q) IC50 of CC(C)c1cnn2c(N[C@@H]3CCc4[nH]ccc4C3)nc(-c3cncc(F)c3)nc12 [I-137b] on AHR (UniProt P35869)?
A) < 500 nM

Q) IC50 of Cc1cnn2c(NCCc3c[nH]c4c(O)cc(O)cc34)cc(-c3cncc(F)c3)nc12 on AHR (UniProt P35869)?
A) > 1500 nM
